Test system: B6C3F1 mice, colon carcinoma 38 s.c., T/C
assay-summary: NCI In Vivo Anticancer Drug Screen. Data for tumor model Colon Carcinoma 38 (subcutaneous) in B6C3F1 mice
test-conditions: endpoint: median tumor weight (est.); dose: 100.0 mg/kg/injection; schedule: Q07DX002 (ip); vehicle: suspension in saline; higher = larger tumour
Results filed as inconclusive are left out.
result-type: T/C

[[record]]
smiles_data = "O=C(Cc1cccc2c(=O)cc(-c3ccccc3)oc12)OCCN1CCOCC1"
system_under_test = "B6C3F1 mice, colon carcinoma 38 s.c., T/C"
result_type = "T/C"
result = "49 % of control"

[[record]]
smiles_data = "CCC(C(=O)O)C(=O)O.[NH2-].[NH2-].[Pt+2]"
system_under_test = "B6C3F1 mice, colon carcinoma 38 s.c., T/C"
result_type = "T/C"
result = "45 % of control"

[[record]]
smiles_data = "CCn1cnc2c(=S)nc[nH]c21"
system_under_test = "B6C3F1 mice, colon carcinoma 38 s.c., T/C"
result_type = "T/C"
result = "58 % of control"

[[record]]
smiles_data = "COc1cc2c(ccc3c4cc(OC)c(OC)cc4c[n+](C)c23)cc1O"
system_under_test = "B6C3F1 mice, colon carcinoma 38 s.c., T/C"
result_type = "T/C"
result = "89 % of control"

[[record]]
smiles_data = "Cc1c2cc[n+](CCN3CCCCC3)cc2c(C)c2c1[nH]c1ccc(O)cc12"
system_under_test = "B6C3F1 mice, colon carcinoma 38 s.c., T/C"
result_type = "T/C"
result = "34 % of control"

[[record]]
smiles_data = "CCN(CC)CCNc1ccc(C)c2sc3ccccc3c(=O)c12"
system_under_test = "B6C3F1 mice, colon carcinoma 38 s.c., T/C"
result_type = "T/C"
result = "42 % of control"

[[record]]
smiles_data = "O=C(O)Cc1cccc2c(=O)cc(-c3ccccc3)oc12"
system_under_test = "B6C3F1 mice, colon carcinoma 38 s.c., T/C"
result_type = "T/C"
result = "90 % of control"

[[record]]
smiles_data = "O=c1[nH]cnc2[nH]ncc12"
system_under_test = "B6C3F1 mice, colon carcinoma 38 s.c., T/C"
result_type = "T/C"
result = "88 % of control"

[[record]]
smiles_data = "CCN(CC)CCOCCO"
system_under_test = "B6C3F1 mice, colon carcinoma 38 s.c., T/C"
result_type = "T/C"
result = "160 % of control"


====

Test system: B6C3F1 mice, colon carcinoma 38 s.c., T/C
assay-summary: NCI In Vivo Anticancer Drug Screen. Data for tumor model Colon Carcinoma 38 (subcutaneous) in B6C3F1 mice
test-conditions: endpoint: median tumor weight (est.); dose: 400.0 mg/kg/injection; schedule: Q07DX002 (ip); vehicle: saline with Tween-80; higher = larger tumour
Results filed as inconclusive are left out.
Listed here: items and their measured T/C.
result-type: T/C

[[record]]
smiles_data = "Nc1ccc2ccc(NS(=O)(=O)N3CCCCC3)cc2c1"
result_type = "T/C"
result = "15 % of control"

[[record]]
smiles_data = "CC(=O)N(C)O"
result_type = "T/C"
result = "91 % of control"

[[record]]
smiles_data = "CCN(CC)c1ccc2[nH]c3c(C(N)=O)cc(=O)c(=O)c=3oc2c1"
result_type = "T/C"
result = "93 % of control"

[[record]]
smiles_data = "O=C1[C@H]2CCC[C@H]2[C@H]2CCC[C@@H]12"
result_type = "T/C"
result = "104 % of control"

[[record]]
smiles_data = "COc1ccc2c(ccc3oc([N+](=O)[O-])cc32)c1"
result_type = "T/C"
result = "92 % of control"

[[record]]
smiles_data = "Nc1nc(N)c2cc(S(=O)(=O)c3ccccc3)ccc2n1"
result_type = "T/C"
result = "24 % of control"

[[record]]
smiles_data = "O=C1NC(=O)/C(=C/C=C/c2ccccc2)S1"
result_type = "T/C"
result = "86 % of control"

[[record]]
smiles_data = "S=C(NCNC(=S)c1ccncc1)c1ccncc1"
result_type = "T/C"
result = "70 % of control"

[[record]]
smiles_data = "Nc1nc(-c2ccccc2)c(Br)c(=O)[nH]1"
result_type = "T/C"
result = "87 % of control"

[[record]]
smiles_data = "O=C(C/C(=N\\C(=S)Nc1cc(C(F)(F)F)ccc1Cl)NO)N1CCCC1"
result_type = "T/C"
result = "100 % of control"

[[record]]
smiles_data = "Oc1cc2ccccc2c(-c2c(O)c(O)cc3ccccc23)c1O"
result_type = "T/C"
result = "62 % of control"

[[record]]
smiles_data = "N=c1c(C(=O)OCc2ccccc2)ncc(CCl)n1O"
result_type = "T/C"
result = "113 % of control"

